Tested on: HCT116 MTAP-deleted cell lines
protocol-text: Cell viability assay (CellTiter-Glo, 7 days), HCT116 MTAP-deleted
Assay type: cell-based
Method: Control compounds were analyzed in parallel each time for quality control. In Brief, on Day -1, a serial dilution of stock compounds in DMSO was performed using BioMek liquid handlers and dispensed using Echo acoustic dispenser into 384 well plates. […] Compound plates were stored as frozen until the cells were ready for seeding. […] On Day 7, the viability of cells was measured using a CTG assay kit (CellTitre-Glo;Promega cat no. G7573). […]
reported-property: CC50

                                smiles_data  reported_property  meas_value
0  Nc1nc2cnc(C(=O)N3CCC[C@@H]4Oc5cc(S(F)(F)(F)(F)F)ccc5[C@@H]43)cc2n2cncc12               CC50    < 100 nM

----------
protocol-text: PK data (IV/PO) in Beagle dog
measurement-parameters: in vivo, IV 0.25 mg/Kg
reported-property: half-life

>>> print(df.to_string())
                                   compound  meas_value
0  Nc1nc2cc(F)c(C(=O)N3CCC[C@@H]4Oc5cc(C(F)(F)F)ccc5[C@@H]43)cc2n2cncc12       3.9 h
1  Nc1nc2cnc(C(=O)N3CCC[C@@H]4Oc5cc(C(F)(F)F)cc(F)c5[C@@H]43)cc2n2cncc12 (single isomer, unassigned)       3.8 h
2  Nc1nc2cnc(C(=O)N3CCC[C@@H]4Oc5cc(OC(F)(F)F)cc(F)c5[C@@H]43)cc2n2cncc12 (single isomer, unassigned)         6 h

----------
protocol-text: PK data (IV/PO) in cynomolgus monkey
measurement-parameters: in vivo, IV 0.25 mg/Kg, read-out: Observed CL (converted)
reported-property: clearance (mL/min/kg)

In [3]: df
Out[3]:
                                   compound  reported_property  value_units  meas_value
0  Nc1nc2cnc(C(=O)N3CCC[C@@H]4Oc5cc(OC(F)(F)F)ccc5[C@@H]43)cc2n2cncc12 [Ff-341]          clearance    mL/min/kg        3.33
1  Nc1nc2cnc(C(=O)N3CCC[C@@H]4Oc5cc(OC(F)(F)F)cc(F)c5[C@@H]43)cc2n2cncc12 (single isomer, unassigned) [Fg-55]          clearance    mL/min/kg        2.17
2  Nc1nc2cnc(C(=O)N3CCC[C@@H]4Oc5cc(C(F)(F)F)cc(F)c5[C@@H]43)cc2n2cncc12 (single isomer, unassigned) [Fg-53]          clearance    mL/min/kg           2
3  Nc1nc2cc(F)c(C(=O)N3CCC[C@@H]4Oc5cc(C(F)(F)F)ccc5[C@@H]43)cc2n2cncc12 [Ff-104]          clearance    mL/min/kg        1.67

----------
protocol-text: PK data (IV/PO) in cynomolgus monkey
measurement-parameters: in vivo, IV 0.25 mg/Kg
Collected half-life values appear next to each entry.
reported-property: half-life (h)

>>> df
                                   compound  reported_property  value_units  meas_value
0  Nc1nc2cc(F)c(C(=O)N3CCC[C@@H]4Oc5cc(C(F)(F)F)ccc5[C@@H]43)cc2n2cncc12 [Ff-104]          half-life            h        10.4
1  Nc1nc2cnc(C(=O)N3CCC[C@@H]4Oc5cc(OC(F)(F)F)ccc5[C@@H]43)cc2n2cncc12 [Ff-341]          half-life            h           8
2  Nc1nc2cnc(C(=O)N3CCC[C@@H]4Oc5cc(C(F)(F)F)cc(F)c5[C@@H]43)cc2n2cncc12 (single isomer, unassigned) [Fg-53]          half-life            h        15.4
3  Nc1nc2cnc(C(=O)N3CCC[C@@H]4Oc5cc(OC(F)(F)F)cc(F)c5[C@@H]43)cc2n2cncc12 (single isomer, unassigned) [Fg-55]          half-life            h        10.7

----------
Tested on: HCT116 MTAP-deleted cell lines
protocol-text: Cell viability assay (CellTiter-Glo, 7 days), HCT116 MTAP-deleted
Type: cell-based
measurement-parameters: Homo sapiens, HCT-116; cell viability, HCT116 MTAP-deleted; class symbols; read-out: CC50
reported-property: CC50

                                    molecule                   tested_target      meas_value
 0  Cn1ccc(N(Cc2ccc(C(F)(F)F)cc2F)C(=O)c2cc3c(cc2F)nc(N)c2cncn23)n1  HCT116 MTAP-deleted cell lines        < 100 nM
 1  Cc1ncc2c(N)nc3ccc(C(=O)N4CCC5(CC4)C(=O)Nc4ccccc45)cc3n12  HCT116 MTAP-deleted cell lines       > 1000 nM
 2  CN(C(=O)c1cc2c(cn1)nc(N)c1cncn12)[C@@H](c1ccc(OC(F)(F)F)cc1F)C(F)F  HCT116 MTAP-deleted cell lines  100 to 1000 nM
 3  CN(C(=O)c1cc2c(cc1F)nc(N)c1cncn12)[C@@H]1COc2cc(-n3cnc(C(F)(F)F)c3)ccc21  HCT116 MTAP-deleted cell lines        < 100 nM
 4  C[C@@H]1CN(C(=O)c2cc3c(cc2F)nc(N)c2cncn23)[C@H]2c3ccc(OC(F)(F)F)c(F)c3C[C@H]2O1 (single isomer, unassigned)  HCT116 MTAP-deleted cell lines        < 100 nM
 5  Cc1ncn2c1c(N)nc1cc(F)c(C(=O)N(C)[C@@H]3COc4cc(C(F)(F)F)ccc43)cc12  HCT116 MTAP-deleted cell lines        < 100 nM
 6  Nc1nc2cc(F)c(C(=O)N3CCO[C@@H]4Cc5cc(OC(F)F)c(F)cc5[C@@H]43)cc2n2cncc12  HCT116 MTAP-deleted cell lines        < 100 nM
 7  CCN(Cc1ccc(F)cc1Cl)C(=O)c1ccc2nc(N)c3cncn3c2c1  HCT116 MTAP-deleted cell lines  100 to 1000 nM
 8  Nc1nc2cnc(C(=O)N3CCO[C@@H]4Cc5c(cc(F)c(Br)c5F)[C@@H]43)cc2n2cncc12  HCT116 MTAP-deleted cell lines  100 to 1000 nM
 9  CC(C)N(Cc1ccc(-c2cnn(C(F)F)c2)cc1F)C(=O)c1ccc2nc(N)c3cncn3c2c1  HCT116 MTAP-deleted cell lines  100 to 1000 nM
10  CC1(C)C[C@@H]2Oc3cc(C(F)(F)F)ccc3[C@@H]2N(C(=O)c2cc3c(cc2F)nc(N)c2cncn23)C1 (racemic)  HCT116 MTAP-deleted cell lines        < 100 nM
11  C[C@@H]1CN(C(=O)c2cc3c(cc2F)nc(N)c2cncn23)[C@H]2c3ccc(Br)c(F)c3C[C@H]2O1 (single isomer, unassigned)  HCT116 MTAP-deleted cell lines        < 100 nM
12  Nc1nc2cc(F)c(C(=O)N3CCC[C@@H]4Oc5cc(C(F)(F)F)ncc5[C@@H]43)cc2n2cncc12  HCT116 MTAP-deleted cell lines        < 100 nM
13  CN(C(=O)c1cc2c(cc1F)nc(N)c1cncn12)[C@@H]1COCc2cc(-c3ccn(C(F)(F)F)n3)ccc21  HCT116 MTAP-deleted cell lines        < 100 nM
14  Nc1nc2cc(F)c(C(=O)N3CC4CC4(c4ccc(C(F)(F)F)cc4)C3)cc2n2cncc12 (stereo not drawn)  HCT116 MTAP-deleted cell lines       > 1000 nM

----------
Collected solubility at 24 h values appear next to each entry.
protocol-text: PBS solubility (kinetic solubility from DMSO stocks)
Format: physicochemical
measurement-parameters: 22 °C, aqueous buffer, kinetic from dmso stock; 1x PBS pH 7.4, 1.0% DMSO, 24-hour incubation at ambient temperature
reported-property: solubility at 24 h (µM)

>>> df
                                   compound   reported_property  reported_relation  meas_value
0  Nc1nc2cnc(C(=O)N3CC[C@H]4C[C@@H]3c3ccc(C(F)(F)F)c(F)c3O4)cc2n2cncc12  solubility at 24 h                  =        28.4
1  Cc1ncc2c(N)nc3ccc(C(=O)N4CCC[C@@H]5Oc6cc(C(F)(F)F)ccc6[C@@H]54)cc3n12  solubility at 24 h                  <           1
2  C[C@@H]1CN(C(=O)c2cc3c(cc2F)nc(N)c2cncn23)[C@H]2c3ccc(OC(F)(F)F)cc3C[C@H]2O1 (single isomer, unassigned)  solubility at 24 h                  =         1.6
3  Nc1nc2cc(F)c(C(=O)N3CCC[C@@H]4Oc5cc(OC(F)(F)F)cc(F)c5[C@@H]43)cc2n2cncc12  solubility at 24 h                  <           1
